- TARGET_OF_ASSAY: GST-Nv-NF-kB (Ser allele) (Nematostella vectensis, UniProt A7UNT2 2-411)
- Sequence: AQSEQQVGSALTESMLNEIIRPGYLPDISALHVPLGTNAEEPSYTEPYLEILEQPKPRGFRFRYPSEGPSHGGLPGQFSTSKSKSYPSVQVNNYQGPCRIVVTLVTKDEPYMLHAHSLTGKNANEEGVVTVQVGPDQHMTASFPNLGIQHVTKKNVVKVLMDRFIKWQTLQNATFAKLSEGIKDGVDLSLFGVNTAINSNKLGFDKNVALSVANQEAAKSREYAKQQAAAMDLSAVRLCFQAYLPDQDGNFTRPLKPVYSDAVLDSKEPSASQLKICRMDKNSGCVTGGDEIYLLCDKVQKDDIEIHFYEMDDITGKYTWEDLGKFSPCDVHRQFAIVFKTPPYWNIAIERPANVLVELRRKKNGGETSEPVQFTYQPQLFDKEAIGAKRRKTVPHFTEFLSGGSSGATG
- TEST_METHOD_NOTES: protein-binding microarray (PBM); PBM: ~300 nM protein, 6 mM HEPES pH 7.8, 80 mM KCl, 0.5 mM EDTA, 0.5 mM EGTA, 6% glycerol, 35 ng/ul poly-dIdC, 1% milk, 1 h, room temperature; high values mean tight binding
- SETTINGS: dsDNA, one strand shown
Label scheme for binding signal: lower than 5 z-score is NOT MET, 5 z-score and above is MET.

Quick check: does "CCGATTAACATCAAGCAATCCCCTGATGTTAATCGGGTCTTGATTCGCTTGACGCTGCTG" have binding signal greater than or equal to 5 z-score?
MET

Item "CCGATTAACATCACCATTTCCCCTGATGTTAATCGGGTCTTGATTCGCTTGACGCTGCTG" with binding signal of 5 z-score or above?
MET

Confirm if binding signal reported for the sequence "CCGATTAACATCACGATTTTCCCTGATGTTAATCGGGTCTTGATTCGCTTGACGCTGCTG" is 5 z-score or above.
MET

Given "CCGATTAACATCAAGGGTATTCCTGATGTTAATCGGGTCTTGATTCGCTTGACGCTGCTG" , state whether its binding signal is at least 5 z-score.
NOT MET

Please indicate if the recorded binding signal for "CCGATTAACATCAAGAACTTCCCTGATGTTAATCGGGTCTTGATTCGCTTGACGCTGCTG" meets or exceeds 5 z-score.
NOT MET

* * *

- TARGET_OF_ASSAY: GST-Ap-NF-kB RHD (Exaiptasia pallida (Aiptasia), UniProt A0A913YAJ5 2-422)
- Sequence: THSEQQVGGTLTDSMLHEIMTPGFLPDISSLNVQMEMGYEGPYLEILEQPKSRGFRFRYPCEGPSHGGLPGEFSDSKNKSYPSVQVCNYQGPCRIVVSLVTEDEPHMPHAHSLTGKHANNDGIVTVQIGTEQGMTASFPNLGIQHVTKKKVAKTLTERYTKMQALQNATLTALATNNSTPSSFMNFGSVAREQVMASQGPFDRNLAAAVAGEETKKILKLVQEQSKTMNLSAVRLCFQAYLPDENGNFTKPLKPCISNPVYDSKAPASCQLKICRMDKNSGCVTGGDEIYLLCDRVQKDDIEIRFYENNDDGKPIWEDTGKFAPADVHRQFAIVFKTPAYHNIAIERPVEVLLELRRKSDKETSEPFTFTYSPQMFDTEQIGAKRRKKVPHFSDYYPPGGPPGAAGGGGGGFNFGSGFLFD
- TEST_METHOD_NOTES: protein-binding microarray (PBM); PBM: ~300 nM protein, 6 mM HEPES pH 7.8, 80 mM KCl, 0.5 mM EDTA, 0.5 mM EGTA, 6% glycerol, 35 ng/ul poly-dIdC, 1% milk, 1 h, room temperature; high values mean tight binding
- SETTINGS: dsDNA, one strand shown
Mark yes (1) for binding signal under 6 z-score, no (0) if at or over.

Consider the sequence "CCGATTAACATCAGGGGGGTACATGATGTTAATCGGGTCTTGATTCGCTTGACGCTGCTG" . Is its binding signal strictly less than 6 z-score?
yes (1)

Please indicate whether the reported binding signal of "CCGATTAACATCAAATTTTCCCATGATGTTAATCGGGTCTTGATTCGCTTGACGCTGCTG" is strictly below 6 z-score.
yes (1)

Answer whether the sequence "CCGATTAACATCACATTTCCCCCTGATGTTAATCGGGTCTTGATTCGCTTGACGCTGCTG" has binding signal strictly less than 6 z-score
no (0)

Please let me know if "CCGATTAACATCACGGGATTCCCTGATGTTAATCGGGTCTTGATTCGCTTGACGCTGCTG" shows binding signal below 6 z-score.
no (0)

A record lists "CCGATTAACATCAGGGACAAAAATGATGTTAATCGGGTCTTGATTCGCTTGACGCTGCTG" . Is its binding signal below 6 z-score?
yes (1)

* * *

Can you tell me binding signal for the items I'm about to list?
- TARGET_OF_ASSAY: GST-Nv-NF-kB (Ser allele) (Nematostella vectensis, UniProt A7UNT2 2-411)
- Sequence: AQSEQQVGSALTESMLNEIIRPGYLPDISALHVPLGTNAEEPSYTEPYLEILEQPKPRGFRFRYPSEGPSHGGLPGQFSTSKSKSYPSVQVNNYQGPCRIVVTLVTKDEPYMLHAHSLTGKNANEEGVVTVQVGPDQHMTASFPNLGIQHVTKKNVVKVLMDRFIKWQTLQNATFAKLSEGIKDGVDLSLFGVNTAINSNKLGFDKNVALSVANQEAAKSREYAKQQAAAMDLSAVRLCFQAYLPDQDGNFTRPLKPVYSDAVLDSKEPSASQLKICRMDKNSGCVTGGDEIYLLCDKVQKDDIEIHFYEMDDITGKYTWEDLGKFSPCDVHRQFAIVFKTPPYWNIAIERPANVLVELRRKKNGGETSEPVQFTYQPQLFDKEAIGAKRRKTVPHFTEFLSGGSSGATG
- TEST_METHOD_NOTES: protein-binding microarray (PBM); PBM: ~300 nM protein, 6 mM HEPES pH 7.8, 80 mM KCl, 0.5 mM EDTA, 0.5 mM EGTA, 6% glycerol, 35 ng/ul poly-dIdC, 1% milk, 1 h, room temperature; high values mean tight binding
- SETTINGS: dsDNA, one strand shown

binding signal for "CCGATTAACATCAGGGGGGACGATGATGTTAATCGGGTCTTGATTCGCTTGACGCTGCTG" is 4.5 z-score

Entry "CCGATTAACATCAGACGTGGGAATGATGTTAATCGGGTCTTGATTCGCTTGACGCTGCTG" — recorded binding signal = 1.48 z-score

The sequence listed as "CCGATTAACATCAATTCCCACCCTGATGTTAATCGGGTCTTGATTCGCTTGACGCTGCTG" has a reported binding signal of 2.72 z-score

What the record says about "CCGATTAACATCAAAGACCCCCCTGATGTTAATCGGGTCTTGATTCGCTTGACGCTGCTG" : binding signal is 4.24 z-score

response.value for "CCGATTAACATCAAGGGAATGCCTGATGTTAATCGGGTCTTGATTCGCTTGACGCTGCTG" (field: binding signal) = 2.83 z-score

Query "CCGATTAACATCACGGGGCCCCCTGATGTTAATCGGGTCTTGATTCGCTTGACGCTGCTG" yields binding signal of 2.68 z-score

The measured binding signal associated with "CCGATTAACATCAAATTTTCCCGTGATGTTAATCGGGTCTTGATTCGCTTGACGCTGCTG" reads 7.05 z-score

The value of binding signal measured for the sequence "CCGATTAACATCAAAAGTCCCCCTGATGTTAATCGGGTCTTGATTCGCTTGACGCTGCTG" turned out to be 8.36 z-score

Please fill in: binding signal reported for "CCGATTAACATCAGGGGAAAAACTGATGTTAATCGGGTCTTGATTCGCTTGACGCTGCTG" = 10.3 z-score

* * *

- TARGET_OF_ASSAY: GST-Ap-NF-kB RHD (Exaiptasia pallida (Aiptasia), UniProt A0A913YAJ5 2-422)
- Sequence: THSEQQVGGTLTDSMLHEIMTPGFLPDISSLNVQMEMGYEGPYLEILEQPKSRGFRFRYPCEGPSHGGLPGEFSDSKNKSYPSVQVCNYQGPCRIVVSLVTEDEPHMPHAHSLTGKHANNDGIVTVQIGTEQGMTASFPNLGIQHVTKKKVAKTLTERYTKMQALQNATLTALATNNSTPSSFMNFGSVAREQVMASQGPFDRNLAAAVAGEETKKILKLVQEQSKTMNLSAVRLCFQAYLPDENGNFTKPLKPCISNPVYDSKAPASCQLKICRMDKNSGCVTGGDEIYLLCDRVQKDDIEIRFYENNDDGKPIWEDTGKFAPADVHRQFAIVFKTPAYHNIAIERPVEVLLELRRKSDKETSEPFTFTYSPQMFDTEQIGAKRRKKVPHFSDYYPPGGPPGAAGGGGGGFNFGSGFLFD
- TEST_METHOD_NOTES: protein-binding microarray (PBM); PBM: ~300 nM protein, 6 mM HEPES pH 7.8, 80 mM KCl, 0.5 mM EDTA, 0.5 mM EGTA, 6% glycerol, 35 ng/ul poly-dIdC, 1% milk, 1 h, room temperature; Ap Aiptasia and Nv Nematostella (sea anemones) / Co Capsaspora / Aq Amphimedon (sponge) / Dm Drosophila / Hu human; RHD is the Rel homology domain; high values mean tight binding
- SETTINGS: dsDNA, one strand shown
Binarize binding signal at 5 z-score; below is 1 (yes), at or above is 0 (no).

Take the sequence "CCGATTAACATCAGATTATCCCCTGATGTTAATCGGGTCTTGATTCGCTTGACGCTGCTG" and say whether its binding signal is less than 5 z-score.
0 (no)

Take the sequence "CCGATTAACATCAGGGAATGCCCTGATGTTAATCGGGTCTTGATTCGCTTGACGCTGCTG" and say whether its binding signal is less than 5 z-score.
0 (no)

Threshold test, binding signal < 5 z-score: "CCGATTAACATCAGGGAATTCCCTGATGTTAATCGGGTCTTGATTCGCTTGACGCTGCTG"
0 (no)

Given the entry "CCGATTAACATCAGGAAGTCCCATGATGTTAATCGGGTCTTGATTCGCTTGACGCTGCTG" , would its reported binding signal be below 5 z-score?
1 (yes)

State whether 5 z-score exceeds binding signal recorded for "CCGATTAACATCATAAGCGGGGATGATGTTAATCGGGTCTTGATTCGCTTGACGCTGCTG" .
1 (yes)

Does the reported binding signal of "CCGATTAACATCAGGAGTCTCCCTGATGTTAATCGGGTCTTGATTCGCTTGACGCTGCTG" stay below 5 z-score?
1 (yes)

Hello, I'm reviewing records and need to know if binding signal of "CCGATTAACATCAGGGAACTTTATGATGTTAATCGGGTCTTGATTCGCTTGACGCTGCTG" is below 5 z-score. Could you check?
1 (yes)

Report whether reported binding signal is lower than 5 z-score (strictly) for "CCGATTAACATCAGGGGCTTTTATGATGTTAATCGGGTCTTGATTCGCTTGACGCTGCTG"
0 (no)
